Test system: Mycobacterium avium
Details: isolate MAV3
PARAMETER: MIC (µg/mL)
Expressed in µg/mL, but write only the number.

Consider the compound `CCCOc1ccc(-c2cn(CCN(CC)CC)c3ccccc3c2=O)cc1` and give its measured MIC. 256

Consider the compound CSc1ccc2c(c1)N(CCC1CCCCN1C)c1ccccc1S2 (stereo not given) and give its measured MIC. 128

Consider the compound `CCCOc1ccc(-c2cn(CCN3CCCCC3)c3ccccc3c2=O)cc1` and give its measured MIC. 64

Consider the compound `CN(C)CCCN1c2ccccc2Sc2ccc(Cl)cc21` and give its measured MIC. 128

Consider the compound `CCCOc1ccc(-c2cn(CCN3CCCCCC3)c3ccccc3c2=O)cc1` and give its measured MIC. 32

* * *

Tested on: Mycobacterium avium
Details: 72 h
Description: Antimycobacterial activity against Mycobacterium avium 104 assessed as reduction in bacterial viability incubated for 3 days by MTT assay
PARAMETER: MIC (µg/mL)
Expressed in µg/mL, but write only the number.

Consider the molecule CC[C@H]1OC(=O)[C@H](C)[C@@H](O[C@H]2C[C@@](C)(OC)[C@@H](O)[C@H](C)O2)[C@H](C)[C@@H](O[C@@H]2O[C@H](C)C[C@H](N(C)C)[C@H]2O)[C@](C)(OC)C[C@@H](C)C(=O)[C@H](C)[C@@H](O)[C@]1(C)O [CLARITHROMYCIN] and give its measured MIC. 8

Consider the molecule `CCCOc1ccc(-c2cn(CCN(CC)CC)c3ccccc3c2=O)cc1` and give its measured MIC. 256

Consider the molecule `CCCOc1ccc(-c2cn(CCN3CCN(Cc4ccccc4)CC3)c3ccccc3c2=O)cc1` and give its measured MIC. 256

Consider the molecule CSc1ccc2c(c1)N(CCC1CCCCN1C)c1ccccc1S2 (stereo unspecified) [THIORIDAZINE] and give its measured MIC. 30

* * *

The listing below reports MIC for compounds tested on Mycobacterium avium subsp. avium ATCC 25291.

Consider the compound `CCCOc1ccc(-c2cn(CCN3CCCCC3)c3ccccc3c2=O)cc1` and give its measured MIC. 32 µg/mL

Consider the compound `CCCOc1ccc(-c2cn(CCN(CC)CC)c3ccccc3c2=O)cc1` and give its measured MIC. 128 µg/mL

Consider the compound `CCCOc1ccc(-c2cn(CCN3CCCCCC3)c3ccccc3c2=O)cc1` and give its measured MIC. 16 µg/mL

Consider the compound CSc1ccc2c(c1)N(CCC1CCCCN1C)c1ccccc1S2 (stereo not given) [THIORIDAZINE] and give its measured MIC. 32 µg/mL

Consider the compound CN(C)CCCN1c2ccccc2Sc2ccc(Cl)cc21 [CHLORPROMAZINE] and give its measured MIC. 16 µg/mL

* * *

System: Mycobacterium avium
Conditions: isolate MAV3
Can you tell me MIC for the items I'm about to list?
Expressed in µg/mL, but write only the number.

Consider the molecule CN(C)CCCN1c2ccccc2Sc2ccc(Cl)cc21 [CHLORPROMAZINE] and give its measured MIC. 1

Consider the molecule `CCCOc1ccc(-c2cn(CCN3CCCCC3)c3ccccc3c2=O)cc1` and give its measured MIC. 1

Consider the molecule `CCCOc1ccc(-c2cn(CCN(CC)CC)c3ccccc3c2=O)cc1` and give its measured MIC. 8

Consider the molecule `CCCOc1ccc(-c2cn(CCN3CCCCCC3)c3ccccc3c2=O)cc1` and give its measured MIC. 0.5

Consider the molecule CSc1ccc2c(c1)N(CCC1CCCCN1C)c1ccccc1S2 (stereo not given) [THIORIDAZINE] and give its measured MIC. 2

Each recorded value in this set is attributed to ChEMBL document CHEMBL4130462.
